tested on: Hepatotoxicity; assay: FDA HLAED, liver enzyme composite activity; conditions: human
QUANTITY: Composite Activity - Marginal
Answers are plain numbers.

Give measured Composite Activity - Marginal for every item shown.
1. Cn1nnnc1SCC1=C(C(=O)O)N2C(=O)[C@@H](NC(=O)[C@H](O)c3ccccc3)[C@H]2SC1
2. COc1cccc2c1C(=O)c1c(O)c3c(c(O)c1C2=O)C[C@@](O)(C(=O)CO)C[C@@H]3O[C@H]1C[C@H](N)[C@H](O)[C@H](C)O1
3. O=c1[nH]c(=O)n([C@H]2C[C@H](O)[C@@H](CO)O2)cc1F
4. Nc1nc2c(ncn2COCCO)c(=O)[nH]1
5. CC(=O)OCC(CCn1cnc2cnc(N)nc21)COC(C)=O
6. Oc1ncnc2[nH]ncc12

0
0
0
0
0
0

# batch size: 2; output Composite Activity - Marginal per entry
1. CC1Cc2ccccc2N1NC(=O)c1ccc(Cl)c(S(N)(=O)=O)c1 (stereo not drawn) [INDAPAMIDE]
2. O=C(O)C1=C(CSc2nnnn2CS(=O)(=O)O)CS[C@@H]2[C@H](NC(=O)[C@H](O)c3ccccc3)C(=O)N12

1: 0; 2: 0

* * *

system: Hepatotoxicity; assay: FDA HLAED, lactate dehydrogenase (LDH) increase; conditions: human
Please provide measured LDH Increase - Index Value for the entries that follow.
Numbers only.

Please review the following examples before continuing.
INSERT INTO measurements (compound, experimental_result) VALUES
  ('CC(=O)OCC(=O)[C@@]12OC3(CCCC3)O[C@@H]1C[C@H]1[C@@H]3CCC4=CC(=O)C=C[C@]4(C)[C@@]3(F)[C@@H](O)C[C@@]12C [AMCINONIDE]', 0),
  ('CCC(=O)[C@@]1(C)[C@H](C)C[C@H]2[C@@H]3CCC4=CC(=O)C=C[C@]4(C)[C@H]3[C@@H](O)C[C@@]21C [RIMEXOLONE]', 0),
  ('CC(CN(C)C)CN1c2ccccc2CCc2ccccc21 (configuration not stated)', 0),
  ('C/C(=C\C(=O)OCCCCCCCCC(=O)O)C[C@@H]1OC[C@H](C[C@@H]2O[C@H]2[C@@H](C)[C@H](C)O)[C@@H](O)[C@H]1O', 0),
  ('COCCc1ccc(OCC(O)CNC(C)C)cc1 (configuration not stated)', 0.3);

Dear colleague, could you please provide LDH Increase - Index Value for the compounds listed below?
1. Nc1nnc(-c2cccc(Cl)c2Cl)c(N)n1
2. CC(=O)N(CC(O)CO)c1c(I)c(C(=O)NCC(O)CO)c(I)c(C(=O)NCC(O)CO)c1I (configuration not stated) [IOHEXOL]
3. CC(C)NCC(O)c1ccc(NS(C)(=O)=O)cc1 (configuration not stated)
4. CC(CCc1ccccc1)NCC(O)c1ccc(O)c(C(N)=O)c1 (configuration not stated)
5. O=C(O)Cc1ccccc1Nc1c(Cl)cccc1Cl
6. COc1cc([C@@H]2c3cc4c(cc3[C@H](O)[C@H]3COC(=O)[C@H]23)OCO4)cc(OC)c1OC
7. CO[C@@]1(NC(=O)CSCC#N)C(=O)N2C(C(=O)O)=C(CSc3nnnn3C)CS[C@@H]21

[3, 144.9, 1, 0.4, 2, 0, 25.5]

Take each entry in turn and give its LDH Increase - Index Value.
1. CCN[C@@H](C)Cc1cccc(C(F)(F)F)c1
2. O=C1CN(/N=C/c2ccc([N+](=O)[O-])o2)C(=O)N1
3. C[C@@H]1C[C@H]2[C@@H]3C[C@H](F)C4=CC(=O)C=C[C@]4(C)[C@@]3(F)[C@@H](O)C[C@]2(C)[C@@]1(O)C(=O)SCF
4. CCC1(c2ccc(N)cc2)CCC(=O)NC1=O (configuration not stated) [AMINOGLUTETHIMIDE]
5. CC(C(=O)O)c1ccc(-c2ccccc2)c(F)c1 (configuration not stated)

0.4
35.6
0
0
0.2

For the 6 compounds below, give their LDH Increase - Index Value values.
1. COc1cc(N)c(Cl)cc1C(=O)NC1CCN(CCCOc2ccc(F)cc2)CC1OC (configuration not stated) [CISAPRIDE]
2. CC[N+](C)(C)Cc1ccccc1Br.Cc1ccc(S(=O)(=O)[O-])cc1 [BRETYLIUM TOSYLATE]
3. NNC(=O)c1ccncc1
4. CCN1CCN(C(=O)N[C@@H](C(=O)N[C@@H]2C(=O)N3C(C(=O)O)=C(CSc4nnnn4C)CS[C@H]23)c2ccc(O)cc2)C(=O)C1=O
5. CO/N=C(\C(=O)N[C@@H]1C(=O)N2C(C(=O)O)=C(CSc3nc(=O)c(=O)[nH]n3C)CS[C@H]12)c1csc(N)n1
6. COc1c(C)c2c(c(O)c1C/C=C(\C)CCC(=O)O)C(=O)OC2

[0.1, 0, 10, 0.1, 1.9, 1.9]

Give one value of LDH Increase - Index Value per listed compound.
1. CCC1=C(C)CN(C(=O)NCCc2ccc(S(=O)(=O)NC(=O)N[C@H]3CC[C@H](C)CC3)cc2)C1=O [GLIMEPIRIDE]
2. CC1(C)S[C@@H]2[C@H](NC(=O)[C@H](N)c3ccc(O)cc3)C(=O)N2[C@H]1C(=O)O
3. C[C@H]1[C@H](NC(=O)/C(=N\OC(C)(C)C(=O)O)c2csc(N)n2)C(=O)N1S(=O)(=O)O
4. CC1(C)S[C@@H]2[C@H](NC(=O)C3(N)CCCCC3)C(=O)N2[C@H]1C(=O)O
5. CC(C)/N=c1\cc2n(-c3ccc(Cl)cc3)c3ccccc3nc-2cc1Nc1ccc(Cl)cc1

0
0
0.6
0
25.6
